assay: Cytotoxicity against human HBI10A cells; assay type: cell-based; conditions: HBI10A cells, read-out: CC50
CC50 values, listed per item
Measured Property: CC50

>  <Compound>
CC(C)CNc1ccc2c(=O)n(-c3cccc(Cl)c3)c(=O)n(C)c2c1

>  <Test Result>
> 100 µM

$$$$
>  <Compound>
Cc1c(NCCO)ccc2c(=O)n(-c3cccc(Cl)c3)c(=O)n(C)c12

>  <Test Result>
> 100 µM

$$$$
>  <Compound>
COc1cccc2c1C(=O)c1c(O)c3c(c(O)c1C2=O)C[C@@](O)(C(=O)CO)C[C@@H]3O[C@H]1C[C@H](N)[C@H](O)[C@H](C)O1 [DOXORUBICIN]

>  <Test Result>
< 0.3 µM

$$$$

###

system: Hepatitis C virus; test: Antiviral activity against HCV infected in human HBI10A cells; assay type: functional, organism-based, Hepacivirus hominis
Lab note - cut at 20 µM for EC50: Y if strictly below, N if not.

>  <Molecule Smiles>
O=c1c2ccc(NCCO)cc2n2ccnc2n1-c1cccc(Cl)c1

>  <Class Label>
N

$$$$
>  <Molecule Smiles>
CC(C)CNc1ccc2c(=O)n(-c3cccc(Cl)c3)c(=O)n(C)c2c1

>  <Class Label>
N

$$$$
>  <Molecule Smiles>
O=c1[nH]c2cc(NCCO)ccc2c(=O)n1-c1cccc(Cl)c1

>  <Class Label>
N

$$$$
>  <Molecule Smiles>
Cc1c(NCCO)ccc2c(=O)n(-c3cccc(Cl)c3)c(=O)n(C)c12

>  <Class Label>
N

$$$$
>  <Molecule Smiles>
Cn1c(=O)n(-c2cccc(Cl)c2)c(=O)c2ccc(NC3CCN(Cc4ccccc4)CC3)cc21

>  <Class Label>
Y

$$$$
>  <Molecule Smiles>
O=c1c2ccc(NC3CCN(Cc4ccccc4)CC3)cc2n2ccnc2n1-c1cccc(Cl)c1

>  <Class Label>
Y

$$$$
>  <Molecule Smiles>
O=C(NC1CCN(Cc2ccccc2)CC1)c1cccc2c(=O)n(-c3cccc(Cl)c3)c(=O)[nH]c12

>  <Class Label>
Y

$$$$

###

pIC50 values, listed per item
test: Inhibition of HCV genotype 2b NS5B polymerase deltaC21 mutant; set-up: species or system Hepatitis C virus subtype 2b
pIC50: −log10 of the molar value.

>  <Molecule Smiles>
O=c1c2ccc(NC3CCN(Cc4ccccc4)CC3)cc2n2ccnc2n1-c1cccc(Cl)c1

>  <pIC50>
< 5.30

$$$$
>  <Molecule Smiles>
O=C(NCCO)c1cccc2c(=O)n(-c3cccc(Cl)c3)c(=O)[nH]c12

>  <pIC50>
< 5.00

$$$$
>  <Molecule Smiles>
O=c1[nH]c2cc(NCCO)ccc2c(=O)n1-c1cccc(Cl)c1

>  <pIC50>
< 4.30

$$$$

###

selectivity ratio values, listed per item
assay: Selectivity index, ratio of CC50 for human HBI10A cells to EC50 for Hepatitis C virus; format: toxicity, cell-based; settings: read-out: Ratio CC50/EC50
Measured Property: selectivity ratio

>  <Molecule Smiles>
CC(C)CNc1ccc2c(=O)n(-c3cccc(Cl)c3)c(=O)n(C)c2c1

>  <Test Result>
> 4

$$$$
>  <Molecule Smiles>
O=C(O)c1cccc(CN2CCn3c(=O)n(-c4cccc(Cl)c4)c(=O)c4cccc2c43)c1

>  <Test Result>
> 3.7

$$$$
>  <Molecule Smiles>
Cc1c(NCCO)ccc2c(=O)n(-c3cccc(Cl)c3)c(=O)n(C)c12

>  <Test Result>
> 2.5

$$$$
